# tested on: human GLP-1 receptor (human, UniProt P43220 24-463)
# test name: cell-based or functional assay
Numbered stars: 1 amine (or outer) side, 2 acyl side, 3 side chain; on linkers, the order of the positions; unused ones are H or OH. Square brackets hold non-standard residues; d marks the D form. Side chains are listed from the residue outwards. Ends that are not written are not given here. * marks the point of attachment. Hexadecanoyl(16-SO3H) = O=C(CCCCCCCCCCCCCCCS(=O)(=O)O)*; C18 diacid = O=C(O)CCCCCCCCCCCCCCCCC(=O)*; γGlu = O=C(O)[C@H](CCC(=O)[*:2])N[*:1]; εLys = N[C@@H](CCCCN[*:1])C(=O)[*:2]; Cya = N[C@@H](CS(=O)(=O)O)C(=O)O; Trx = NC[C@H]1CC[C@H](C(=O)O)CC1; AEEA = NCCOCCOCC(=O)O; Aib = CC(C)(N)C(=O)O; Ahx = NCCCCCC(=O)O
parameter measured: In vitro potency EC50 (CRE luciferase reporter gene assay, BHK cells) (nM)

binder	readout unit	observed result
H[Aib]EGTFTSDVSK([AEEA-AEEA-AEEA-AEEA-AEEA-εLys-εLys-C18 diacid])YLEK([AEEA-AEEA-AEEA-AEEA-AEEA-εLys-εLys-C18 diacid])QAAREFIK([AEEA-AEEA-AEEA-AEEA-AEEA-εLys-εLys-C18 diacid])WLVRGRG (Full chemical name printed at h-0082)	nM	0.014
H[Aib]EGTFTSDVSK([AEEA-AEEA-AEEA-AEEA-AEEA-εLys-εLys-Ahx-Hexadecanoyl(16-SO3H)])YLEK([AEEA-AEEA-AEEA-AEEA-AEEA-εLys-εLys-Ahx-Hexadecanoyl(16-SO3H)])QAAREFIK([AEEA-AEEA-AEEA-AEEA-AEEA-εLys-εLys-Ahx-Hexadecanoyl(16-SO3H)])WLVRGRG (Full chemical name printed at h-0090)	nM	0.027
H[Aib]EGTFTSDVSSYLEEQAAK([εLys-AEEA-AEEA-Cya-Hexadecanoyl(16-SO3H)])EFIK([εLys-AEEA-AEEA-Cya-Hexadecanoyl(16-SO3H)])WLVRGRK([εLys-AEEA-AEEA-Cya-Hexadecanoyl(16-SO3H)]) (Full chemical name printed at h-0074)	nM	0.099
H[Aib]EGTFTSDVSK([AEEA-AEEA-εLys-εLys-Hexadecanoyl(16-SO3H)])YLEK([AEEA-AEEA-εLys-εLys-Hexadecanoyl(16-SO3H)])QAAREFIK([AEEA-AEEA-εLys-εLys-Hexadecanoyl(16-SO3H)])WLVRGRG (Full chemical name printed at h-0078)	nM	0.018
H[Aib]EGTFTSDVSK([AEEA-AEEA-εLys-Hexadecanoyl(16-SO3H)])YLEK([AEEA-AEEA-εLys-Hexadecanoyl(16-SO3H)])QAAREFIK([AEEA-AEEA-εLys-Hexadecanoyl(16-SO3H)])WLVRGRG (Full chemical name printed at h-0076)	nM	0.026
H[Aib]EGTFTSDVSK([AEEA-AEEA-γGlu-C18 diacid])YLEEQAARK([AEEA-AEEA-γGlu-C18 diacid])FIAWLVRGRK([AEEA-AEEA-γGlu-C18 diacid]) (Full chemical name printed at h-0060)	nM	0.04
H[Aib]EGTFTSDVSK([AEEA-AEEA-γGlu-Trx-Hexadecanoyl(16-SO3H)])YLEK([AEEA-AEEA-γGlu-Trx-Hexadecanoyl(16-SO3H)])QAAREFIK([AEEA-AEEA-γGlu-Trx-Hexadecanoyl(16-SO3H)])WLVRGRG (Full chemical name printed at h-0052)	nM	0.067
H[Aib]EGTFTSDVSK([AEEA-AEEA-Cya-Trx-Hexadecanoyl(16-SO3H)])YLEK([AEEA-AEEA-Cya-Trx-Hexadecanoyl(16-SO3H)])QAAREFIK([AEEA-AEEA-Cya-Trx-Hexadecanoyl(16-SO3H)])WLVRGRG (Full chemical name printed at h-0058 (it prints 'Lys8' where Lys18 is meant))	nM	0.014
H[Aib]EGTFTSDVSK([AEEA-AEEA-AEEA-AEEA-εLys-εLys-Ahx-Hexadecanoyl(16-SO3H)])YLEK([AEEA-AEEA-AEEA-AEEA-εLys-εLys-Ahx-Hexadecanoyl(16-SO3H)])QAAREFIK([AEEA-AEEA-AEEA-AEEA-εLys-εLys-Ahx-Hexadecanoyl(16-SO3H)])WLVRGRG (Full chemical name printed at h-0088; the printed name is uneven in the number of OEG units for the side chains at 18 and 22 (four opened, three closed))	nM	0.019
H[Aib]EGTFTSDVSK([εLys-AEEA-AEEA-γGlu-C18 diacid])YLEEQAARK([εLys-AEEA-AEEA-γGlu-C18 diacid])FIAWLVRGRK([εLys-AEEA-AEEA-γGlu-C18 diacid]) (Full chemical name printed at h-0062 (it prints 'Lys8' where Lys18 is meant))	nM	0.012
H[Aib]EGTFTSDVSK([AEEA-γGlu-AEEA-C18 diacid])YLEEQAARK([AEEA-γGlu-AEEA-C18 diacid])FIAWLVRGRK([AEEA-γGlu-AEEA-C18 diacid]) (Full chemical name printed at h-0064)	nM	0.076
H[Aib]EGTFTSDVSK([AEEA-AEEA-Cya-Hexadecanoyl(16-SO3H)])YLEK([AEEA-AEEA-Cya-Hexadecanoyl(16-SO3H)])QAAREFIK([AEEA-AEEA-Cya-Hexadecanoyl(16-SO3H)])WLVRGRG (Full chemical name printed at h-0054)	nM	0.02
H[Aib]EGTFTSDVSK([Ser-Ser-Ser-Ser-Ser-Ser-γGlu-C18 diacid])YLEGQAARK([Ser-Ser-Ser-Ser-Ser-Ser-γGlu-C18 diacid])FIAWLVRGRK([Ser-Ser-Ser-Ser-Ser-Ser-γGlu-C18 diacid]) (Full chemical name printed at h-0068)	nM	0.067
